- assayed-system: PDE5 from human platelets (Homo sapiens)
- Construct: from tissue; host or cells: human platelets
- test: PDE5 inhibitory activity test (scintillation proximity assay)
- Assay type: biochemical
- run-conditions: PDE5 from human platelets
quantity: pIC50
Note: pIC50 values are expressed as the negative base-10 logarithm of concentration in M.

Previously resolved entries follow.
mol	assayed-system	pIC50
CCCc1nn(C)c2c(=O)[nH]c(-c3cc(S(=O)(=O)N(CCOC(C)=O)CCOC(C)=O)ccc3OCCOC)nc12	PDE5 from human platelets (Homo sapiens)	7.77
CCCOc1ccc(S(=O)(=O)N(CCN2CCOCC2)Cc2ccccc2)cc1-c1nc2c(CCC)nn(C)c2c(=O)[nH]1	PDE5 from human platelets (Homo sapiens)	10.06
CCCc1nn(C)c2c(=O)[nH]c(-c3cc(S(=O)(=O)N(CC)CCN(CC)CCO)ccc3OCC)nc12	PDE5 from human platelets (Homo sapiens)	8.20
CCCOc1ccc(S(=O)(=O)N(CCCO)CCCOC(C)=O)cc1-c1nc2c(CCC)nn(C)c2c(=O)[nH]1	PDE5 from human platelets (Homo sapiens)	8.41
CCCc1nn(C)c2c(=O)[nH]c(-c3cc(S(=O)(=O)N(CCOCCO)CCN4CCOCC4)ccc3OCC)nc12	PDE5 from human platelets (Homo sapiens)	9.17
CCOc1ccc(S(=O)(=O)N(CCO)CCO)cc1-c1nc2c(CC)nn(C)c2c(=O)[nH]1	PDE5 from human platelets (Homo sapiens)	8.67
CCCOc1ccc(S(=O)(=O)N(CCCOC(C)=O)CCCOC(C)=O)cc1-c1nc2c(CCC)nn(C)c2c(=O)[nH]1	PDE5 from human platelets (Homo sapiens)	8.42
CCCOc1ccc(S(=O)(=O)N(CCOC(C)=O)CCOC(C)=O)cc1-c1nc2c(CCC)nn(C)c2c(=O)[nH]1	PDE5 from human platelets (Homo sapiens)	10.10

Request: Returns the measured pIC50 for the input compound. Input: CCOc1ccc(S(=O)(=O)N(CCOC(C)=O)CCOC(C)=O)cc1-c1nc2c(CC)nn(C)c2c(=O)[nH]1
Result: 9.13

Request: Returns the measured pIC50 for the input compound. Input: CCCOc1ccc(S(=O)(=O)N(CC)CCCOC(C)=O)cc1-c1nc2c(CCC)nn(C)c2c(=O)[nH]1
Result: 7.88

Request: Returns the measured pIC50 for the input compound. Input: CCCOc1ccc(S(=O)(=O)N(C)CCN2CCCCC2)cc1-c1nc2c(CCC)nn(C)c2c(=O)[nH]1
Result: 8.06

Request: Returns the measured pIC50 for the input compound. Input: CCCc1nn(C)c2c(=O)[nH]c(-c3cc(S(=O)(=O)N(C)CCN(C)CCOCCOCCOCc4ccccc4)ccc3OCC)nc12
Result: 9.53

Request: Returns the measured pIC50 for the input compound. Input: CCOc1ccc(S(=O)(=O)N(CCN2CCOCC2)Cc2ccccc2)cc1-c1nc2c(CC)nn(C)c2c(=O)[nH]1
Result: 9.34

Request: Returns the measured pIC50 for the input compound. Input: CCCOc1ccc(S(=O)(=O)N(CCO)CCO)cc1-c1nc2c(CCC)nn(C)c2c(=O)[nH]1
Result: 9.88

Request: Returns the measured pIC50 for the input compound. Input: CCCOc1ccc(S(=O)(=O)N(CCN2CCCC2)Cc2cccnc2)cc1-c1nc2c(CCC)nn(C)c2c(=O)[nH]1
Result: 8.11
